Species: Mus musculus
measurement_description: Oral potency tested by using anti-mescaline test
Assay type: functional
readout: ED50

Q: Using the record for `Cl.Oc1ccc(CN2CCC(COCc3ccc(F)cc3)CC2)cc1` , report its ED50.
Ans: > 10 mg/kg

Q: Using the record for `Br.O=C(CC1CCN(CCC2CC2)CC1)c1ccc(F)cc1` , report its ED50.
Ans: < 10 mg/kg

Q: Using the record for CC1(CN2CCC(COc3ccc(F)cc3)CC2)CC1(Cl)Cl.O=C(O)/C=C/C(=O)O (stereo not given) , report its ED50.
Ans: < 10 mg/kg

Q: Using the record for `Fc1ccc(-c2ccc(OCC3CCN(CC4CC4)CC3)cc2)cc1` , report its ED50.
Ans: < 30 mg/kg

Q: Using the record for `CCNc1ccc(OCC2CCN(CC3CC3)CC2)cc1.Cl.O` , report its ED50.
Ans: > 30 mg/kg

Q: Using the record for `CC(C)(C)c1ccc(OCC2CCN(CC3CC3)CC2)cc1` , report its ED50.
Ans: < 30 mg/kg

Q: Using the record for `Cl.Clc1ccc(OCC2CCN(CC3CC3)CC2)cc1` , report its ED50.
Ans: 4.4 mg/kg

Q: Using the record for `O.O=C(O)/C=C\C(=O)O.c1ccc(CN2CCC(COc3cccnc3)CC2)cc1` , report its ED50.
Ans: > 30 mg/kg

Q: Using the record for `Fc1ccc(SCC2CCN(CCC3CC3)CC2)cc1` , report its ED50.
Ans: > 10 mg/kg

Q: Using the record for O.OC(CC1CCN(CCc2ccccc2)CC1)c1ccc(F)cc1 (stereo not given) , report its ED50.
Ans: < 10 mg/kg

Q: Using the record for `Cl.O.O=C(CC1CCN(CC2CC2)CC1)c1ccc(C(F)(F)F)cc1` , report its ED50.
Ans: 6.6 mg/kg

Q: Using the record for `O.O=C(CC1CCN(Cc2ccccc2)CC1)c1ccc(C(F)(F)F)cc1` , report its ED50.
Ans: > 10 mg/kg

Q: Using the record for `CSc1ccc(OCC2CCN(CC3CC3)CC2)cc1.Cl` , report its ED50.
Ans: > 30 mg/kg

Q: Using the record for `O=C(Cc1ccc(F)cc1)CC1CCN(Cc2ccccc2)CC1.O=C(O)/C=C\C(=O)O` , report its ED50.
Ans: > 30 mg/kg

Q: Using the record for `CS(=O)(=O)c1ccc(OCC2CCN(CC3CC3)CC2)cc1` , report its ED50.
Ans: > 30 mg/kg
